target: full-length VAR2CSA recombinant protein (3D7-DBL1X-6ε) (Plasmodium falciparum 3D7, UniProt Q8I639, strain); experiment: SPR

[
  {
    "binder": "VHH889 (VHH) VHH: QVQLQESGGGLVQAGGSLRLSCAASGRSFSSYAMGWFRQAPGKEREFVATITWSGGSTYYADSVKGRFTISGDSAENTVYLQMNSLKPEDTAVYYCAADETSAPLYRAYEAQYDYWGQGTQVTVSS",
    "Kd": "700 nM"
  },
  {
    "binder": "VHH867 (VHH) VHH: QVQLQESGGGLVQAGGSLRLSCAASGFTLDDYGIGWFRQAPGKEREGVSFISSSDGTTDYADSVKGRFTISSDNAKNTVYLQMNSLKPEDTAVYYCAAVEQRVPFLSVLHEAIYDYWGQGTQVTVSS",
    "Kd": "300 nM"
  },
  {
    "binder": "VHH883 (VHH) VHH: QVQLQESGGGLVQAGGSLRLSCAASGRTFSSYAMGWFRQAPGKEREFVAAISWSGDTTYYADSVKGRFTISRDNAKNTVSLQMNSLKPEDTAVYYCAANDLMVPALLMPRLESYDYWGQGTQVTVSS",
    "Kd": "10 nM"
  },
  {
    "binder": "VHH879 (VHH) VHH: QVQLQESGGGLVQAGGSLRLSCAASGRTFSDYAMGWFRQAPGKDREFVAAISWSGDRTYYADSVKGRFTISRDNAKNTVYLQMNSLKPEDTAVYHCAANDLMVPELLMPRVESYDYWGQGTQVTVSS",
    "Kd": "19 nM"
  }
]

Hello, the source for this data is paper PMC5376981, in case you need it.
